We begin with a simple list: items and their reported log10 of IC50.
Target: bovine cardiac myofibrils (Bos taurus, UniProt Q9BE39)
Construct: full-length cardiac myosin in the context of the native sarcomere, skinned myofibril assays were performed
Sequence (Q9BE39 whole entry): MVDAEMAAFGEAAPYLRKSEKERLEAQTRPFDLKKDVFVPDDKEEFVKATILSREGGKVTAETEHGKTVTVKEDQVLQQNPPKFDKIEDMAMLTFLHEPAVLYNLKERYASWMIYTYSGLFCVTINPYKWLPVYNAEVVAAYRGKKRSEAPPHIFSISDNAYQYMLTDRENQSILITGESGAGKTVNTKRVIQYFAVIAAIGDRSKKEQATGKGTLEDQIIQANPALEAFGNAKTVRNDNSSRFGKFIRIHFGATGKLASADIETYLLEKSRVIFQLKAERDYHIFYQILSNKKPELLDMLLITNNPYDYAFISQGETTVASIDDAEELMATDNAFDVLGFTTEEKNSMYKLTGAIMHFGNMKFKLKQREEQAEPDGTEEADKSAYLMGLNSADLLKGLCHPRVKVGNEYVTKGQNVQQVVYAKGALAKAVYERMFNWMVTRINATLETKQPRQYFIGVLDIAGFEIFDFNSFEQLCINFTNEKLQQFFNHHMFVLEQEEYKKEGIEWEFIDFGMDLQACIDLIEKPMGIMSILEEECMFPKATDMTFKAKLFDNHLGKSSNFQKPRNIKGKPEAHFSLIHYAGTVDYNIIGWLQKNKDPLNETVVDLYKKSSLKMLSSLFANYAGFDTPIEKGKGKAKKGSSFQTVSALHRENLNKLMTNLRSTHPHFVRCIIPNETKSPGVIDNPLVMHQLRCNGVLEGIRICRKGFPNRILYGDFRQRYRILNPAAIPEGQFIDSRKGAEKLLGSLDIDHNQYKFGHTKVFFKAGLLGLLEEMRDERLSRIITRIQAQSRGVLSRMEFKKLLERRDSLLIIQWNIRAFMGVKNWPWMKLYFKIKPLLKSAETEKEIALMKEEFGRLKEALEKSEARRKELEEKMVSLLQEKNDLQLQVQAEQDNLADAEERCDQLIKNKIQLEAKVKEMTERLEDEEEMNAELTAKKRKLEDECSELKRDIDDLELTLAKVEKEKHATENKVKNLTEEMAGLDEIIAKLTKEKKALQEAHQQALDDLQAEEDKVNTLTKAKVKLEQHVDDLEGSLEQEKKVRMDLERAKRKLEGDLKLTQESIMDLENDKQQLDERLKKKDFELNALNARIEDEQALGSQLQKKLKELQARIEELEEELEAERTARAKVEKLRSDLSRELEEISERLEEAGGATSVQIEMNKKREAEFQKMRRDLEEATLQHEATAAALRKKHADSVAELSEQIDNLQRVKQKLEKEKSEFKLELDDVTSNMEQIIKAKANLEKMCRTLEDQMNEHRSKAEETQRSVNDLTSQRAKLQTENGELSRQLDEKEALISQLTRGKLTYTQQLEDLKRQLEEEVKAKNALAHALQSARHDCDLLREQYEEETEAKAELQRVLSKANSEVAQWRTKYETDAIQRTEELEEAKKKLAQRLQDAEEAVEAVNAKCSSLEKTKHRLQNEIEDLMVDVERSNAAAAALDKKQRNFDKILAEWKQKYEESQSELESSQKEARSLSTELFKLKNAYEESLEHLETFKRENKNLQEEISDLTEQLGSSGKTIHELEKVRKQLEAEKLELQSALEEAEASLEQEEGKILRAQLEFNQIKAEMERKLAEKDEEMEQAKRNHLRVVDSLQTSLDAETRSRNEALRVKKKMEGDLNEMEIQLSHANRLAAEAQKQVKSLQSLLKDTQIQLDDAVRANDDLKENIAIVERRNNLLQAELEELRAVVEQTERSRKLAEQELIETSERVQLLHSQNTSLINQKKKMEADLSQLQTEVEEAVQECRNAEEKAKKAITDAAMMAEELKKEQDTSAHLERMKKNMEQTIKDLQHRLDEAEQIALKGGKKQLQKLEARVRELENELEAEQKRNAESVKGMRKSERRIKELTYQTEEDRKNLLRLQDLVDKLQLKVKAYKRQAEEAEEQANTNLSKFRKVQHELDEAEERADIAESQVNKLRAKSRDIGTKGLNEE
Sequence (P85100 whole entry partner): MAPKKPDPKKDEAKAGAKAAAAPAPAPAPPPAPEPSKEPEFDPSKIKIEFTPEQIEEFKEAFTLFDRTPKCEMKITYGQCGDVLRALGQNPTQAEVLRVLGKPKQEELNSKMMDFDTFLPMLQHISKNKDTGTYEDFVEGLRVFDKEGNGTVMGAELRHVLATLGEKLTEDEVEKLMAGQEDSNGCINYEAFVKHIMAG
Sequence (Q3SZE5 whole entry partner): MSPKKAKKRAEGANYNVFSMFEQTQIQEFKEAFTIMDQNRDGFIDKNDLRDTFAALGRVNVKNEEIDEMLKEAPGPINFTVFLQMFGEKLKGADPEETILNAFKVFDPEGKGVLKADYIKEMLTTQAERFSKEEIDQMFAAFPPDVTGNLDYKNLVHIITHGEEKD
Experiment: Skinned myofibril ATPase assay (PK/LDH-coupled), CDMF75
Settings: inhibition of steady-state ATPase activity of bovine cardiac myofibrils at 75% Ca2+ activation (pCa75)
// do not treat as linear: log10 of IC50, unit µM

Below, each entry is followed by its recorded log10 of IC50 result.
# compound, log10 of IC50
rows = [
    ("Cc1nc(-c2ccc(CNc3cc(C#N)ncn3)cc2)no1", 0.26),
    ("Cc1cc(-c2ccc(CNc3cnccn3)cc2)no1", 0.00),
    ("Cc1nc(-c2ccc3c(c2)CCCC3Nc2cnccn2)no1 (stereo not shown)", 0.34),
    ("C[C@@H](Nc1cnccn1)c1ccc(-c2noc(-c3ccsc3)n2)cc1", 0.23),
]

Now examine the next entry.
Give recorded log10 of IC50. "Cc1nc(-c2ccc(CNC(=O)Oc3ccccc3)cc2)no1"
1.06

====

We begin with a simple list: items and their reported IC50.
Target: bovine cardiac myofibrils (Bos taurus)
Construct: full-length cardiac myosin in the context of the native sarcomere, skinned myofibril assays were performed
Test: Skinned myofibril ATPase assay (PK/LDH-coupled), CDMF75
Details: inhibition of steady-state ATPase activity of bovine cardiac myofibrils at 75% Ca2+ activation (pCa75)
Return type: number; implicit unit µM.

Below, each entry is followed by its recorded IC50 result.
# compound, IC50, µM
measured = [
    ("Cc1nc(-c2ccc(CNC(=O)c3ccccc3)cc2)no1", 15.1),
    ("Cc1noc(-c2ccc(CNc3cc(Cl)ncn3)cc2)n1", 2.1),
    ("COc1cc(NCc2ccc(-c3cc(C)on3)cc2)ncn1", 1.7),
    ("Cc1nc(-c2ccc(C(C)Nc3cc(Cl)ncn3)cc2)no1 (centres unmarked)", 12.8),
]

Give recorded IC50. "Cc1cnc(-c2ccc(CNc3cc(Cl)ncn3)cc2)o1"
8.9

====

Molecular target: bovine cardiac myofibrils (Bos taurus)
Construct: full-length cardiac myosin in the context of the native sarcomere, skinned myofibril assays were performed; from tissue; host or cells: bovine cardiac left ventricular tissue, detergent-skinned (Triton X-100) myofibrils
Experiment: Skinned myofibril ATPase assay (PK/LDH-coupled), CDMF75
Assay type: biochemical
Settings: inhibition of steady-state ATPase activity of bovine cardiac myofibrils at 75% Ca2+ activation (pCa75)
attribute-measured: CDMF75 IC15 (nM)
Return type: number; implicit unit nM.

Below, each entry is followed by its recorded CDMF75 IC15 result.
# compound, measured-target, CDMF75 IC15 / nM
measured = [
    ("C[C@@H](Nc1cnccn1)c1ccc(-c2noc(C3CC3)n2)cc1", "bovine cardiac myofibrils (Bos taurus)", 400),
    ("Cc1nc(-c2ccc(CNc3cc(C(N)=O)ccn3)cc2)no1", "bovine cardiac myofibrils (Bos taurus)", 1200),
    ("CC(C)c1nc(-c2ccc([C@@H](C)Nc3cnccn3)cc2)no1", "bovine cardiac myofibrils (Bos taurus)", 700),
]

Now examine the next entry.
With bovine cardiac myofibrils (Bos taurus) as the test system, provide measured CDMF75 IC15 for this compound: "C[C@@H](Nc1cnccn1)c1ccc(-c2noc(C(C)(C)C)n2)cc1"
7100

====

We begin with a simple list: items and their reported IC50.
Target: bovine cardiac myofibrils (Bos taurus, UniProt Q9BE39)
Construct: full-length cardiac myosin in the context of the native sarcomere, skinned myofibril assays were performed
Test: Skinned myofibril ATPase assay (PK/LDH-coupled), CDMF75
Conditions: inhibition of steady-state ATPase activity of bovine cardiac myofibrils at 75% Ca2+ activation (pCa75)
Description: To evaluate the effect of compounds on the ATPase activity of full-length cardiac myosin in the context of the native sarcomere, skinned myofibril assays were performed. […] Small molecule agents were assessed for their ability to inhibit the steady-state ATPase activity of bovine cardiac myofibrils using pyruvate kinase and lactate dehydrogenase (PK/LDH)-coupled enzyme system. This assay regenerates myosin-produced ADP into ATP by oxidizing NADH, producing an absorbance change at 340 nm. […]
Return type: number; implicit unit µM.

# chemical-smiles, attribute-measured, unit-info, recorded-number
data = [
    ("Cc1nc(-c2ccc(CNc3cnc(C(F)(F)F)cn3)cc2)no1", "IC50", "µM", 17.3),
    ("CCc1cc(NCc2ccc(-c3noc(C)n3)cc2)ncn1", "IC50", "µM", 16.6),
    ("Cc1nc(-c2ccc(CNc3ccncn3)cc2)no1", "IC50", "µM", 27.7),
    ("Cc1nc(-c2ccc(CNc3cnccn3)cc2)no1", "IC50", "µM", 4.3),
]

Now examine the next entry.
Give recorded IC50. "Cc1nc(-c2ccc(CNc3cc(Cl)ncn3)cc2)no1"
1.2

====

Target: bovine cardiac myofibrils (Bos taurus)
Construct: full-length cardiac myosin in the context of the native sarcomere, skinned myofibril assays were performed
Test: Skinned myofibril ATPase assay (PK/LDH-coupled), CDMF75
Settings: inhibition of steady-state ATPase activity of bovine cardiac myofibrils at 75% Ca2+ activation (pCa75)
Method: To evaluate the effect of compounds on the ATPase activity of full-length cardiac myosin in the context of the native sarcomere, skinned myofibril assays were performed. […] Small molecule agents were assessed for their ability to inhibit the steady-state ATPase activity of bovine cardiac myofibrils using pyruvate kinase and lactate dehydrogenase (PK/LDH)-coupled enzyme system. This assay regenerates myosin-produced ADP into ATP by oxidizing NADH, producing an absorbance change at 340 nm. […]
We begin with a simple list: items and their reported pIC50.
// pIC50 here means minus log10 of the molar concentration (mol/L)

Below, each entry is followed by its recorded pIC50 result.
# chemical-smiles, measured-target, pIC50
rows = [
    ("Cc1nc(-c2ccc(CNc3cncc(Cl)n3)cc2)no1", "bovine cardiac myofibrils (Bos taurus)", 5.09),
    ("Cc1cnn(-c2ccc(CNc3cnccn3)cc2)c1", "bovine cardiac myofibrils (Bos taurus)", 4.41),
    ("C[C@@H](Nc1cnccn1)c1ccc(-c2noc(C3CC3)n2)cc1", "bovine cardiac myofibrils (Bos taurus)", 5.82),
]

Now examine the next entry.
Give recorded pIC50. "COC(=O)c1nc(-c2ccc(CNc3cnccn3)cc2)no1"
5.59

====

We begin with a simple list: items and their reported log10 IC50.
Molecular target: bovine cardiac myofibrils (Bos taurus)
Construct: full-length cardiac myosin in the context of the native sarcomere, skinned myofibril assays were performed
Assay: Skinned myofibril ATPase assay (PK/LDH-coupled), CDMF75
Details: inhibition of steady-state ATPase activity of bovine cardiac myofibrils at 75% Ca2+ activation (pCa75)
// do not treat as linear: log10 of IC50, unit µM

# compound, log10 IC50
records = [
    ("Cc1nc(-c2ccc(CNc3ccc(Cl)cn3)cc2)no1", 0.72),
    ("Fc1cc(-c2noc(C3CC3)n2)ccc1CNc1cnccn1", 0.23),
]

Give recorded log10 IC50. "CCc1nc(-c2ccc(CNc3cc(C#N)ncn3)cc2)no1"
-0.15

Give recorded log10 IC50. "c1cnc(NCc2ccc(-c3noc(C4CC4)n3)cc2)cn1"
0.26

====

Biological target: bovine cardiac myofibrils (Bos taurus, UniProt Q9BE39)
Construct: full-length cardiac myosin in the context of the native sarcomere, skinned myofibril assays were performed; from tissue; host or cells: bovine cardiac left ventricular tissue, detergent-skinned (Triton X-100) myofibrils
Assay: Skinned myofibril ATPase assay (PK/LDH-coupled), CDMF75
Format: biochemical
Conditions: inhibition of steady-state ATPase activity of bovine cardiac myofibrils at 75% Ca2+ activation (pCa75)
CDMF75 IC15 of 2 µM or higher: condition met. Under 2 µM: condition not met.

These solved cases illustrate the format of a correct answer.
# molecule, measured-target, class
data = [
    ("Cc1nc(-c2ccc(CNc3cc(C#N)ccn3)cc2)no1 [Compound 15]", "bovine cardiac myofibrils (Bos taurus, UniProt Q9BE39)", "condition not met"),
    ("Cc1coc(-c2ccc(CNc3cnccn3)cc2)n1 [Compound 69]", "bovine cardiac myofibrils (Bos taurus, UniProt Q9BE39)", "condition met"),
    ("Cc1cc(-c2ccc(CNc3ccn(C)n3)cc2)no1 [Compound 64]", "bovine cardiac myofibrils (Bos taurus, UniProt Q9BE39)", "condition met"),
]

Kindly review the next molecule as well.
Can COC(=O)c1nc(-c2ccc(CNc3cnccn3)cc2)no1 [Compound 30] be said to have CDMF75 IC15 at or above 2 µM?
condition not met

====

We begin with a simple list: items and their reported CDMF75 IC15.
Biological target: bovine cardiac myofibrils (Bos taurus, UniProt Q9BE39)
Construct: full-length cardiac myosin in the context of the native sarcomere, skinned myofibril assays were performed; from tissue; host or cells: bovine cardiac left ventricular tissue, detergent-skinned (Triton X-100) myofibrils
Assay: Skinned myofibril ATPase assay (PK/LDH-coupled), CDMF75
Assay type: biochemical
Details: inhibition of steady-state ATPase activity of bovine cardiac myofibrils at 75% Ca2+ activation (pCa75)
Return type: number; implicit unit µM.

Below, each entry is followed by its recorded CDMF75 IC15 result.
# molecule, attribute-measured, recorded-number
data = [
    ("Cc1nc(-c2ccc(CNc3cnc(Cl)cn3)cc2)no1 [Compound 13]", "CDMF75 IC15", 0.3),
    ("Cc1nc(-c2ccc(CNc3cnccn3)c(F)c2)no1 [Compound 46]", "CDMF75 IC15", 0.4),
    ("CCc1cc(NCc2ccc(-c3noc(C)n3)cc2)ncn1 [Compound 8]", "CDMF75 IC15", 3.1),
    ("Cc1nc(-c2ccc(CNc3cncc(Cl)n3)cc2)no1 [Compound 1]", "CDMF75 IC15", 1.4),
    ("Fc1cc(CNc2cnccn2)ccc1-c1noc(C(F)(F)F)n1 [Compound 42]", "CDMF75 IC15", 0.8),
]

With bovine cardiac myofibrils (Bos taurus, UniProt Q9BE39) as the test system, provide measured CDMF75 IC15 for this molecule: C[C@@H](Nc1cnccn1)c1ccc(-c2noc(-c3ccccc3)n2)cc1 [Compound 37]
1.3

With bovine cardiac myofibrils (Bos taurus, UniProt Q9BE39) as the test system, provide measured CDMF75 IC15 for this molecule: Cc1cc(-c2ccc(CNc3cc[nH]n3)cc2)no1 [Compound 62]
5.0

With bovine cardiac myofibrils (Bos taurus, UniProt Q9BE39) as the test system, provide measured CDMF75 IC15 for this molecule: COC(=O)NCc1ccc(-c2noc(C)n2)cc1 [Compound 54]
6.0

With bovine cardiac myofibrils (Bos taurus, UniProt Q9BE39) as the test system, provide measured CDMF75 IC15 for this molecule: Cc1cnc(-c2ccc(CNc3cnccn3)cc2)o1 [Compound 49]
0.3

With bovine cardiac myofibrils (Bos taurus, UniProt Q9BE39) as the test system, provide measured CDMF75 IC15 for this molecule: C[C@@H](Nc1cnccn1)c1ccc(-c2noc(-c3cccs3)n2)cc1 [Compound 40]
0.3

Measured values drawn from patent US12187712B2 for this set.
